Consider the following compounds; for each one, report its TGI.
tested on: HT29 colon; experiment: NCI tumour cell line growth inhibition, 48 h

## Task Name the reported TGI value associated with the compound `O=C1C(c2c(O)[nH]c3ccc(S(=O)(=O)O)cc23)=Nc2ccccc21`
## Result > 100 µM

## Task Follow-up entry: `CCOC(=O)c1[nH]cc(C)c1-c1ccn(-c2ccccc2)c1`
## Result > 100 µM

## Task Here is the next compound: O=c1c2ncn(C3CC(O)C(CO)O3)c2nnn1Cc1ccccc1[N+](=O)[O-] (stereo unspecified)
## Result > 100 µM

## Task Moving on to CCC(C(=O)O)c1ccc(OCc2ccccc2)cc1 (stereo unspecified)
## Result > 100 µM

## Task Next: `O=C1OC(=O)C(c2c[nH]c3ccccc23)=C1c1c[nH]c2ccccc12`
## Result > 25 µM

## Task Also need `O=C(Nc1cccc2cnccc12)c1cc2c(cc1Cl)Sc1nccn1S2(=O)=O` , thanks.
## Result 48.3 µM

## Task Okay, and `Nc1c2ccccc2nc2c1ccc1ncccc12` ?
## Result > 100 µM

## Task Request: `C/C(=N/NC(N)=S)c1ccc2ccccc2c1`
## Result 72.4 µM

## Task Another: `O=C(CN1CCCCC1)CC(O)(C(F)(F)F)C(F)(F)F`
## Result > 100 µM

## Task Please answer likewise for COc1cc(C2c3cc4c(cc3OC(NN=C(C)C)C2C)OCO4)cc(OC)c1O (stereo unspecified)
## Result > 100 µM

## Task Param item: `O=C1c2ccccc2CN1c1ccc(O)cc1`
## Result > 100 µM
